Measured growth of individual entries
# Test system: 786-0 renal
# Experiment notes: NCI-60 one-dose screen, 48 h (100 = growth as untreated, 0 = no growth, -100 = all killed)
# Condition: 10 µM unless noted
About 83,000 compounds went through this panel and 20% of them were active in at least one assay; those are over-represented in the sample as a whole.
Measured endpoint: growth (%)

>>> recorded_measurement("COc1cc(-c2nc3cc(Cl)c(Cl)cc3[nH]2)ccc1OCc1nnc(-c2cccs2)o1")
85.8
>>> recorded_measurement("CC1=C(C#N)C2=NNCC(c3ccccc3)=NN2C(c2ccccc2)=C1")
98.2
>>> recorded_measurement("Cn1cc(-c2nc(N)nnc2-c2c[nH]c3ccc(F)cc23)c2cc(Br)cnc21")
5.54
>>> recorded_measurement("COc1ccc2cc([C@H](C)C(=O)N/N=C/c3ccc(Br)cc3)ccc2c1")
95.4
>>> recorded_measurement("COc1cc2oc(-c3cccc(C(=O)Nc4ccc(Cl)cc4)c3)cc(=O)c2c(OCCNC(=O)[C@@H](N)CCC(=O)O)c1OC")
60.6
>>> recorded_measurement("CC1=C(C(=O)c2ccccc2)C(c2cccc3ccccc23)n2c(nc3ccccc32)N1 (centres undefined)")
70.6
>>> recorded_measurement("COc1c(F)ccc(C(=O)Nc2ccc3nc(NC(=O)C4CCCN(S(=O)(=O)c5cccc(C(F)(F)F)c5)C4)sc3c2)c1F (centres undefined)")
60.9
>>> recorded_measurement("O=c1[nH]c2ccccc2cc1CSc1nccc(-c2ccc3ccccc3c2)n1")
78.3
>>> recorded_measurement("COc1cccc(-c2nc(Nc3ccc(S(N)(=O)=O)cc3)c3ccccc3n2)c1")
5.42
